Molecular target: T1, alpha1b adrenergic receptor (expressed in Pichia pastoris, membranes) (Homo sapiens (Human)), P35368
T1 chain: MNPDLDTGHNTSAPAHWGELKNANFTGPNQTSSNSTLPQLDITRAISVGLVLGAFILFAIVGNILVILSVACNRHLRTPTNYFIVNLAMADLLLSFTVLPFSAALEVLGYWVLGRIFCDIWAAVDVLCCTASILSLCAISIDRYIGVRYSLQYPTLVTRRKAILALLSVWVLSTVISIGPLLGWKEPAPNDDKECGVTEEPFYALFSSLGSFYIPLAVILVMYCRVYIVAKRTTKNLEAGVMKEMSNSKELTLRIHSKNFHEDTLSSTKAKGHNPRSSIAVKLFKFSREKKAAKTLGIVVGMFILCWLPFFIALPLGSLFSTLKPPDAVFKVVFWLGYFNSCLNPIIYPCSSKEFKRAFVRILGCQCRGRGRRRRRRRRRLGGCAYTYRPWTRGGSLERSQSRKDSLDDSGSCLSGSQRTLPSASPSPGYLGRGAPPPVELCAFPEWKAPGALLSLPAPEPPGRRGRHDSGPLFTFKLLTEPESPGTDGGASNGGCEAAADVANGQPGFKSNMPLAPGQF
Test: displacement of 3H-prazosin (1 nM) from yeast membranes, filtration
PARAMETER: IC50 (nM)

In [3]: df
Out[3]:
                                     binder  observed_result
0  AdTx1 peptide (modifications not checked) peptide: LTCVTSKSIFGITTEDCPDGQNLCFKRRHYVVPKIYDSTRGCAATCPIPENYDSIHCCKTDKCNE             2300
